# Assay explanation: MTT cytotoxicity assay, Jurkat cells
# Assay type: cell-based, human
# Assay setup: % Cytotoxicity, Jurkat, 10 μM Mastoparan, MTT, 24 h, mean ± SEM
Endpoint: cytotoxicity (%)
I only need the number, in %, no unit after it.

Dear colleague, I am looking for the recorded cytotoxicity of the following compound: CC[C@H](C)[C@H](N)C(=O)N[C@@H](CC(N)=O)C(=O)N[C@@H](CC(C)C)C(=O)N[C@@H](CCCCN)C(=O)N[C@@H](C)C(=O)N[C@@H](CC(C)C)C(=O)N[C@@H](C)C(=O)N[C@@H](C)C(=O)N[C@@H](CC(C)C)C(=O)N[C@@H](C)C(=O)N[C@@H](CCCCN)C(=O)N[C@@H](CCCCN)C(=O)N[C@H](C(=O)N[C@@H](CC(C)C)C(N)=O)[C@@H](C)CC
64
